test system: lipid peroxide production, rat hepatic microsome; assay: Anti-lipid-peroxide action: inhibition of lipid peroxide production in rat hepatic microsome; type: biochemical; conditions: Wister rat hepatic microsome, ferrous sulfate/cysteine, 37° C. 30 minutes, thiobarbituric acid absorbance 535 nm
ENDPOINT_LABEL: IC50 (50% inhibition concentration against lipid peroxide) (µg/mL)

{"columns": ["MOLECULE", "SYSTEM_TESTED", "REPORTED"],
 "data": [
  ["Cc1cc(Oc2ccc3nc(COc4ccc(CC5SC(=O)NC5=O)cc4)n(C)c3c2)cc(C)c1O (stereo not drawn) [Example 4-2a]", "lipid peroxide production, rat hepatic microsome", 0.83],
  ["Cc1cc(Oc2ccc3nc(COc4ccc(CC5SC(=O)NC5=O)cc4)n(C)c3c2)cc(C)c1N.Cl.Cl (stereo not drawn) [Example 8-2b]", "lipid peroxide production, rat hepatic microsome", 3.2],
  ["Cc1cc(Oc2ccc3nc(COc4ccc(CC5SC(=O)NC5=O)cc4)n(C)c3n2)c(C)c(C)c1O (stereo not drawn) [Example 1-2a]", "lipid peroxide production, rat hepatic microsome", 0.97],
  ["Cc1cc(Oc2ccc3nc(COc4ccc(CC5SC(=O)NC5=O)cc4)n(C)c3c2)c(C)c(C)c1O (stereo not drawn) [Example 2-2a]", "lipid peroxide production, rat hepatic microsome", 0.54]
]}

A: Cl.Cn1c(COc2ccc(CC3SC(=O)NC3=O)cc2)nc2ccc(Sc3cc(C(C)(C)C)c(O)c(C(C)(C)C)c3)cc21.Cn1c(COc2ccc(CC3SC(=O)NC3=O)cc2)nc2ccc(Sc3cc(C(C)(C)C)c(O)c(C(C)(C)C)c3)cc21 (stereo not drawn) [Example 7-2a]
B: Cc1cc(Oc2ccc3nc(COc4ccc(CC5SC(=O)NC5=O)cc4)n(C)c3c2)c(Cl)c(C)c1O.Cl (stereo not drawn) [Example 5b]
[Q] Which of the two items, A and B , has the greater recorded IC50 (50% inhibition concentration against lipid peroxide)? // respond with label for picked entry
[A] B
(B: 1.3 µg/mL, A: 0.65 µg/mL)

----------
The molecules listed here are annotated with their inhibition in vivo at 0.01 % in diet.
tested on: KK mice which developed diabetes; assay: Hypoglycemic action in diabetic KK mice; assay type: in vivo; settings: Mus musculus, po, 72 h, powdery food containing 0.01% test compound for three days, plasma glucose vs control, read-out: Blood sugar lowering rate (%)
Structures can show the parent of a compound that is named as a salt.
Give the quantity in %, number only.

# example entries with known answers
{"columns": ["MOLECULE", "inhibition in vivo at 0.01 % in diet / %"],
 "data": [
  ["Cn1c(COc2ccc(CC3SC(=O)NC3=O)cc2)nc2ccc(Oc3ccc(O)cc3)cc21 (stereo not shown) [Example 3-2]", 60.1],
  ["Cn1c(COc2ccc(CC3SC(=O)NC3=O)cc2)nc2ccc(Oc3ccc(C#N)cc3)cc21 (stereo not shown) [Example 40, hydrochloride]", 66.4],
  ["Cc1cc(Oc2ccc3nc(COc4ccc(CC5SC(=O)NC5=O)cc4)n(C)c3c2)c(C)c(C)c1O (stereo not shown) [Example 2-2b, hydrochloride]", 49.2],
  ["Cc1cc(Oc2ccc3nc(COc4ccc(CC5SC(=O)NC5=O)cc4)n(C)c3n2)c(C)c(C)c1O (stereo not shown) [Example 1-2b, hydrochloride]", 48.1],
  ["Cn1c(COc2ccc(CC3SC(=O)NC3=O)cc2)nc2ccc(Oc3ccccn3)cc21 (stereo not shown) [Example 6-2]", 62.6]
]}

[Q] What does the data say about its inhibition in vivo at 0.01 % in diet? Entry: Cn1c(COc2ccc(CC3SC(=O)NC3=O)cc2)nc2ccc(Oc3ccc(NC(=O)c4cccnc4)cc3)cc21 (stereo not shown) [Example 51]
[A] 63.6

[Q] Data request, read-out inhibition in vivo at 0.01 % in diet, for Cc1ccc(Sc2ccc3nc(COc4ccc(CC5SC(=O)NC5=O)cc4)n(C)c3c2)cc1 (stereo not shown) [Example 34-2b, hydrochloride]
[A] 71.2
